tested on: SEM cells; experiment: cell viability relative to DMSO control; higher = less cytotoxic; conditions: HPLM + 10% dialyzed FBS; 48 h; 0.000781 µM
cell viability: recorded values
MEASUREMENT_LABEL: cell viability (%)

INSERT INTO measurements (compound, unit, recorded_measurement) VALUES
  ('CC(=O)N1CCN(c2ccc(OCc3nn(C)c(C)c3-c3cccc4c(CCCOc5cccc6ccccc56)c(C(=O)O)n(Cc5cccnc5)c34)cc2)CC1', '%', 92.6),
  ('O=C(NC[C@H](O)CN1CCc2ccccc2C1)c1cc(NC2COC2)ncn1', '%', 58.8),
  ('CNC1[C@@H](O)C(O[C@@H]2C(O)C(O[C@H]3O[C@H]([C@@H](C)NC)CC[C@H]3N)[C@@H](N)C[C@H]2N)OC[C@]1(C)O (stereo partly drawn)', '%', 99.8),
  ('CCN(CC)CCCCNc1nc2cc(Cl)c(Cl)cc2nc1-c1ccc(-c2cccs2)s1', '%', 83.7),
  ('Cc1c(Cn2c(C)nc3c(C(=O)O)cc(N4CCOCC4)cc32)cccc1C(F)(F)F', '%', 84.5),
  ('CC(C)Nc1cc(-c2c[nH]c(C(=O)N[C@H](CO)c3cccc(Cl)c3)c2)c(Cl)cn1', '%', 105),
  ('NC(CO)(CO)CCc1ccc(Sc2cccc(OCc3ccccc3)c2)cc1Cl', '%', 89.6),
  ('OC[C@H]1O[C@H]([C@@H](F)[C@@H]1O)N2\C=C/C(=O)NC2=O', '%', 106),
  ('CC1(C)OC2CC3C4CC(F)C/5=C/C(=O)/C=C\C5(C)C4C(O)CC3(C)[C@@]2(O1)C(=O)CO (stereo partly drawn)', '%', 97.4),
  ('CC(C)(C)C(=O)OCOP(=O)(COCCn1cnc2c(N)ncnc21)OCOC(=O)C(C)(C)C', '%', 84.1),
  ('O=C(O)c1ccc(-n2nc(-c3ccccc3O)nc2-c2ccccc2O)cc1', '%', 86.4),
  ('CC(C)(C)C(=O)Oc1ccc([S+](=O)([O-])Nc2ccccc2C(=O)NCC(=O)O)cc1', '%', 107),
  ('C=CC1=C(C(=O)O)N2C(=O)[C@@H](NC(=O)/C(=N\O)c3csc(N)n3)[C@H]2SC1', '%', 80.6),
  ('O=C(Nc1cccc(Nc2ncc(Br)c(NCCc3cnc[nH]3)n2)c1)N1CCCC1', '%', 77.4),
  ('CC(C)n1nc(-c2ccc3oc(N)nc3c2)c2c(N)ncnc21', '%', 87.7),
  ('CN(C)C(=O)c1ccc([S+](=O)([O-])c2ccc(NC(=O)[C@@](C)(O)C(F)(F)F)c(Cl)c2)cc1', '%', 98.1),
  ('[NH2][Pt]([NH2])([Cl])[Cl]', '%', 93.8),
  ('CCN(CC)C(=S)SSC(=S)N(CC)CC', '%', 99.8);

----------
system: NOMO1; assay: cell viability relative to DMSO control; higher = less cytotoxic; details: HPLM + 10% dialyzed FBS; 48 h; 0.569 µM
MEASUREMENT_LABEL: cell viability (%)

INSERT INTO results (compound, measurement_label, recorded_measurement) VALUES
  ('CN1CCC(CC1)COC2=CN=C(N=C2)C3=CC(=CC=C3)CN4/N=C(\C=C/C4=O)C5=CC(=CC=C5)C#N', 'cell viability', 111),
  ('CC\1=C(C(=O)N(\C=C1)C2=CC=C(C=C2)C3=NC=CO3)/C4=CC5=CN=C(N)N=C5C=C4', 'cell viability', 122),
  ('CN1\C(=C(\O)C2=C(C=CS2)[S+]1([O-])=O)C(=O)NC3=CC=CC=N3', 'cell viability', 109),
  ('Clc1cc(Cl)cc(CNc2ncncc2-c2ccc3c(c2)OCO3)c1', 'cell viability', 94.6),
  ('CC(=O)N1CCN(c2ccc(OC[C@H]3CO[C@](Cn4ccnc4)(c4ccc(Cl)cc4Cl)O3)cc2)CC1', 'cell viability', 129),
  ('COc1cc(O)c2c(c1)C1OC1C[C@H](O)[C@H](O)C(=O)/C=C\C[C@H](C)OC2=O (some centres not stated)', 'cell viability', 122),
  ('OCc1ccc(-c2nn(Cc3ccccc3)c3ccccc23)o1', 'cell viability', 111),
  ('CC(=O)O[C@@]1(CC[C@H]2[C@@H]3\C=C(C)/C4=C/C(=O)CC[C@]4(C)[C@H]3CC[C@]12C)C(C)=O', 'cell viability', 130),
  ('Cn1cc(-c2ccc3nnc(C(F)(F)c4ccc5ncccc5c4)n3n2)cn1', 'cell viability', 105),
  ('CCC[C@H](N[C@@H](C)C(=O)N1[C@H](C(=O)O)C[C@@H]2CCCC[C@@H]21)C(=O)OCC', 'cell viability', 115),
  ('CC(=O)Nc1ccc([C@H](C)C(=O)Nc2ncc(C(C)C)s2)cc1', 'cell viability', 119),
  ('CC(=O)N1CCN(c2ccc(OCc3nn(C)c(C)c3-c3cccc4c(CCCOc5cccc6ccccc56)c(C(=O)O)n(Cc5cccnc5)c34)cc2)CC1', 'cell viability', 126),
  ('CNC1[C@@H](O)C(O[C@@H]2C(O)C(O[C@H]3O[C@H]([C@@H](C)NC)CC[C@H]3N)[C@@H](N)C[C@H]2N)OC[C@]1(C)O (some centres not stated)', 'cell viability', 106),
  ('OC[C@H](Cc1ccccc1)Nc1nc(Oc2ccc3c(c2)CCC3)nc2c1ncn2Cc1ccc(-c2ccccc2)cc1', 'cell viability', 108),
  ('C\C1=C\N([C@H]2C[C@H](N=[N+]=[N-])[C@@H](CO)O2)C(=O)NC1=O', 'cell viability', 109),
  ('CC(C)(C)C(=O)Oc1ccc([S+](=O)([O-])Nc2ccccc2C(=O)NCC(=O)O)cc1', 'cell viability', 109),
  ('COc1cc2c(Nc3ccc(Cl)c(Cl)c3F)ncnc2cc1OC[C@@H]1C[C@@H]2CN(C)C[C@@H]2C1', 'cell viability', 81.2);
